- tgt: Angiopoietin-1 receptor (Homo sapiens)
- condition_notes: at 0.1 µM
- Description: GSK_PKIS: TIE2 mean inhibition at 0.1 uM [Nanosyn]
metric: inhibition (%)
Quick reminder: number only, in %, skip the unit.

Kindly indicate its recorded inhibition. Item: "Clc1ccc(-c2nn3ncccc3c2-c2ccnc(Nc3ccccc3)n2)cc1" 3.84

Kindly indicate its recorded inhibition. Item: "Fc1ccc(-c2cc(-c3c[nH]nc3-c3ccccn3)ccn2)cc1" 2.32

Kindly indicate its recorded inhibition. Item: "N#Cc1c(NC(=O)c2ccc(F)cc2)sc2c1CCCC2" 1.49

Kindly indicate its recorded inhibition. Item: CC1=C(C(=O)Nc2cc(Cl)c3[nH]ncc3c2)C(c2ccc(C(F)(F)F)cc2)CC(=O)N1 (stereo not given) 4.83

Kindly indicate its recorded inhibition. Item: "CCn1c(-c2nonc2N)nc2c(C#CC(C)(C)O)ncc(OC3CCNCC3)c21" 4.81

Kindly indicate its recorded inhibition. Item: "CCCN(CCS(C)(=O)=O)Cc1ccc(-c2ccc3ncnc(Nc4ccc(OCc5cccc(F)c5)c(Cl)c4)c3c2)o1" 1.56

Kindly indicate its recorded inhibition. Item: "CNC(=O)c1cc(-c2ccc(F)cc2)cc(-c2ccc(S(=O)(=O)N3CCCC3)cc2)c1N" 2.3

Kindly indicate its recorded inhibition. Item: "CCn1c(-c2nonc2N)nc2ccccc21" 0.56

Kindly indicate its recorded inhibition. Item: "CN(C)CCOc1ccc(-c2nc(-c3ccncc3)c(-c3ccc4c(c3)CC/C4=N\O)[nH]2)cc1" 2.29

Kindly indicate its recorded inhibition. Item: "O=C(Nc1n[nH]c2cc(-c3ccc(F)cc3)ccc12)C1CC1" 1.89

Kindly indicate its recorded inhibition. Item: "O=S(=O)(CCNCc1ccc(-c2ccc3ncnc(Nc4ccc(OCc5cccc(F)c5)c(Cl)c4)c3c2)o1)c1ccccc1" 5.73

Kindly indicate its recorded inhibition. Item: "CS(=O)(=O)CCNCc1ccc(-c2ccc3ncnc(Nc4ccc(OCc5ccccc5)c(C(F)(F)F)c4)c3c2)o1" 0.1

Kindly indicate its recorded inhibition. Item: "Fc1ccc(-c2nn3ccccc3c2-c2ccncc2)cc1" 3.2

Kindly indicate its recorded inhibition. Item: "Nc1nc(-c2ccc(F)cc2)c(-c2ccc3ncccc3n2)s1" 1.26

Kindly indicate its recorded inhibition. Item: "CN1CCC(n2cnc(-c3ccc(F)cc3)c2-c2ccnc(N)n2)CC1" 3.13

Kindly indicate its recorded inhibition. Item: "NC(=O)c1sc(-n2cnc3ccc(C(F)(F)F)cc32)cc1OCc1ccccc1Br" 2.27

Kindly indicate its recorded inhibition. Item: "CCn1c(-c2nonc2N)nc2cnc(Oc3cccc(NC(=O)c4ccc(N(C)C)cc4)c3)cc21" 2.52

Kindly indicate its recorded inhibition. Item: "COc1cccc(-c2c[nH]c3c(N/N=C/c4ccncc4)ncnc23)c1" 4.98

Kindly indicate its recorded inhibition. Item: "CS(=O)(=O)CCNCc1coc(-c2ccc3ncnc(Nc4ccc(OCc5ccccc5)cc4)c3c2)c1" 3.15

Kindly indicate its recorded inhibition. Item: "O=C(O[C@H]1CN[C@H](C#Cc2cc3ncnc(Nc4ccc(Cc5ccccc5)cc4)c3s2)C1)N1CCOCC1" -0.43

###

Below, each entry is listed alongside its reported inhibition.
- tgt: Serine/threonine-protein kinase MARK1 (Homo sapiens) (UniProt Q9P0L2)
- Sequence (Q9P0L2 whole entry, looked up): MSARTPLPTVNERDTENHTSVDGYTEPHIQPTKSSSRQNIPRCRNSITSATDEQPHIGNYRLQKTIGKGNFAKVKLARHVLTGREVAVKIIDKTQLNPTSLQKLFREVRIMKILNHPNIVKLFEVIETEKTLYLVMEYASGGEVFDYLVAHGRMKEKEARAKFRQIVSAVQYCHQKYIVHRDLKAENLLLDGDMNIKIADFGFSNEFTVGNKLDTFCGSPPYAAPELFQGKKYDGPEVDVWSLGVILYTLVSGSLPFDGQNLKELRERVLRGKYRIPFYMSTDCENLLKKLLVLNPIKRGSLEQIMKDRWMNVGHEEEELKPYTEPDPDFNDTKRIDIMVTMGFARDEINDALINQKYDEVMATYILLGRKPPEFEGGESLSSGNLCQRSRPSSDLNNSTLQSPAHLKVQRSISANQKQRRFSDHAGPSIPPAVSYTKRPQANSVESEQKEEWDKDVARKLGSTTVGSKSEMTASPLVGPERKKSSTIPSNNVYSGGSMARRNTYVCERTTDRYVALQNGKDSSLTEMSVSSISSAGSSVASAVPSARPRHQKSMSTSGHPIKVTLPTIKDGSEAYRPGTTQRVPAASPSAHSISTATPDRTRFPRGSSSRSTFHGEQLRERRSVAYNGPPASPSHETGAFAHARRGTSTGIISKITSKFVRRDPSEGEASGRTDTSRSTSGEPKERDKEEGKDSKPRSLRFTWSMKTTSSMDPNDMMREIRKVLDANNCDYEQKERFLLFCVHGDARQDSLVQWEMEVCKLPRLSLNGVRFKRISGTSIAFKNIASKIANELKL
- condition_notes: at 1 µM
Quick reminder: number only, in %, skip the unit.

NS(=O)(=O)c1ccc(N/N=C2\C(=O)Nc3ccc4ncccc4c32)cc1: 52.9
CS(=O)(=O)CCNCc1ccc(-c2ccc3ncnc(Nc4ccc(OCc5ccccc5)c(C(F)(F)F)c4)c3c2)o1: 4.11

Send back Serine/threonine-protein kinase MARK1 (Homo sapiens) (UniProt Q9P0L2) inhibition of "COC(=O)c1sc(-n2cnc3cc(OC)c(OC)cc32)cc1OCc1ccccc1C(F)(F)F" only. 6.82

Send back Serine/threonine-protein kinase MARK1 (Homo sapiens) (UniProt Q9P0L2) inhibition of "CCNC(=O)O[C@H]1CN[C@H](C#Cc2cc3ncnc(Nc4ccc(OCc5cccc(F)c5)c(Cl)c4)c3s2)C1" only. 2.65

Send back Serine/threonine-protein kinase MARK1 (Homo sapiens) (UniProt Q9P0L2) inhibition of "CNC(=O)c1cc(-c2ccc(F)cc2)cc(-c2ccc(S(=O)(=O)N3CCCC3)cc2)c1N" only. 3.58
